# TARGET_OR_TEST_SYSTEM: T1, BMPRII receptor-Fc fusion (UniProt Q13873 27-151, limits assumed)
# T1 construct: BMP receptor-Fc fusion used at 5 ug/mL
# T1 sequence (looked up): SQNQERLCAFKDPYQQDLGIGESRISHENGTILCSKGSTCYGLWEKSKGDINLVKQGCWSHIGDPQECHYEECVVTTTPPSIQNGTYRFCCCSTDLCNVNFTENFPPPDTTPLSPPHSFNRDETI
# PROCEDURE_SUMMARY: ELISA-like plate assay, captured BMP-7 from conditioned media, receptor-Fc detection
PROPERTY_NAME: BMPRII binding (relative to wild type = 1.0)

BINDER	VALUE_OBSERVED
BMP-7 variant K39A (ligand, In conditioned media; numbering on mature BMP-7) STGGKQRSQNRSKTPKNQEALRMASVAENSSSDQRQACAKHELYVSFRDLGWQDWIIAPEGYAAYYCEGECAFPLNSYMNATNHAIVQTLVHFINPETVPKPCCAPTQLNAISVLYFDDSSNVILKKYRNMVVRACGCH	1.51 relative to wild type

Consider the record given below.
Ask: Give a short answer stating reported BMPRII binding (relative to wild type = 1.0) for BMP-7 variant F117Y (ligand, In conditioned media; numbering on mature BMP-7) STGGKQRSQNRSKTPKNQEALRMASVAENSSSDQRQACKKHELYVSFRDLGWQDWIIAPEGYAAYYCEGECAFPLNSYMNATNHAIVQTLVHFINPETVPKPCCAPTQLNAISVLYYDDSSNVILKKYRNMVVRACGCH .
Reply: 0.96 relative to wild type
